Sourced from ChEMBL document CHEMBL5226374

- assayMethodText: Cytotoxicity against human HEp-2 cells assessed as reduction in cell viability incubated for 6 days by CellTiter-Glo assay
- Type: toxicity, cell-based
- measurementConditions: time 6 day
metric: CC50 at 144 h (µg/mL)
Write down the numeric answer in µg/mL and omit the unit.

Using the record for COC(=O)[C@@]12C(=O)[C@](C)(Cc3c(O)c(C)cc(C(C)=O)c3O)C(=O)[C@]1(C)C(C)=C[C@H]1[C@]3(C=O)CC[C@H](OC(C)=O)C(C)(C)[C@H]3CC[C@@]12C , report its CC50 at 144 h.
43

---

- assayMethodText: Selectivity index, ratio of CC50 for cytotoxicity against African green monkey Vero cells to EC50 for antiviral activity against Dengue virus 3 infected in african green monkey Vero cells
- Format: toxicity, cell-based
- measurementConditions: read-out: Ratio CC50/EC50
# maps each entry to its selectivity ratio

Using the record for COC(=O)[C@@]12C(=O)[C@](C)(Cc3c(O)c(C)cc(C(C)=O)c3O)C(=O)[C@]1(C)C(C)=C[C@H]1[C@]3(C=O)CC[C@H](OC(C)=O)C(C)(C)[C@H]3CC[C@@]12C , report its selectivity ratio.
< 1

Proceed to the following item.
Using the record for C#C[C@@]1(O)[C@H](O)[C@@H](CO)O[C@H]1n1ccc2c(N)ncnc21 , report its selectivity ratio.
67

---

- assayMethodText: Cytotoxicity against MDCK cells assessed as reduction in cell viability incubated for 48 hrs by CellTiter-Glo assay
- Format: toxicity, cell-based, Canis lupus familiaris
- measurementConditions: dog
metric: CC50 at 48 h

Using the record for COC(=O)[C@@]12C(=O)[C@](C)(C(=O)c3cc(OC)c(O)c(O)c3C(C)=O)C(=O)[C@]1(C)C(C)=C[C@H]1[C@]3(C=O)CC[C@H](OC(C)=O)C(C)(C)[C@H]3CC[C@@]12C , report its CC50 at 48 h.
114 µg/mL

Using the record for NC(=O)c1ncn([C@@H]2O[C@H](CO)[C@@H](O)[C@H]2O)n1 , report its CC50 at 48 h.
> 300 µM

Proceed to the following item.
Using the record for COC(=O)[C@@]12C(=O)[C@](C)(Cc3c(O)c(C)cc(C(C)=O)c3O)C(=O)[C@]1(C)C(C)=C[C@H]1[C@]3(C=O)CC[C@H](OC(C)=O)C(C)(C)[C@H]3CC[C@@]12C , report its CC50 at 48 h.
> 500 µg/mL

---

# maps each entry to its selectivity ratio
- assayMethodText: Selectivity index, ratio of CC50 for cytotoxicity against MDCK cells to EC50 for antiviral activity against Influenza A virus A/PR/8 (H1N1) infected in MDCK cells
- Type: toxicity, cell-based
- measurementConditions: dog, read-out: Ratio CC50/EC50

Solved cases (2 shown):
Using the record for COC(=O)[C@@]12C(=O)[C@](C)(C(=O)c3cc(OC)c(O)c(O)c3C(C)=O)C(=O)[C@]1(C)C(C)=C[C@H]1[C@]3(C=O)CC[C@H](OC(C)=O)C(C)(C)[C@H]3CC[C@@]12C , report its selectivity ratio.
8.1

Using the record for COC(=O)[C@@]12C(=O)[C@](C)(Cc3c(O)c(C)cc(C(C)=O)c3O)C(=O)[C@]1(C)C(C)=C[C@H]1[C@]3(C=O)CC[C@H](OC(C)=O)C(C)(C)[C@H]3CC[C@@]12C , report its selectivity ratio.
> 26

Proceed to the following item.
Using the record for NC(=O)c1ncn([C@@H]2O[C@H](CO)[C@@H](O)[C@H]2O)n1 , report its selectivity ratio.
> 71
